Values compiled from ChEMBL document CHEMBL1153560.

Test system: Anaerococcus vaginalis
Assay: Antibacterial activity against Anaerococcus vaginalis isolated from patient with diabetic foot infection after 44 to 48 hrs by agar dilution method
Assay type: functional
Observation Type: log10(MIC90) (log10 of the value in µg/mL)
Transform log10 | Measure MIC90 | Unit µg/mL

Molecule	Observation Type	Test Result
C[C@@H](O)[C@H]1C(=O)N2C(C(=O)O)=C(S[C@@H]3CN[C@H](C(=O)Nc4cccc(C(=O)O)c4)C3)[C@H](C)[C@H]12	log10(MIC90)	-0.60
C[C@@H](O)[C@H]1C(=O)N2C(C(=O)O)=C(S[C@@H]3CN[C@H](C(=O)N(C)C)C3)[C@H](C)[C@H]12	log10(MIC90)	-0.90
C[C@@H](O)[C@H]1C(=O)N2C(C(=O)O)=C(S[C@@H]3CN[C@H](CNS(N)(=O)=O)C3)[C@H](C)[C@H]12	log10(MIC90)	-1.22

Query: Which value of log10(MIC90) has been reported for C[C@@H](O)[C@H]1C(=O)N2C(C(=O)O)=C(SCCNC=N)C[C@H]12 [IMIPENEM ANHYDROUS] in the records?
Response: -1.52

Query: What value of log10(MIC90) has been reported for the following molecule? "CCC[C@@H]1C[C@@H](C(=O)N[C@@H]([C@H]2O[C@H](SC)[C@H](O)[C@@H](O)[C@H]2O)[C@H](C)Cl)N(C)C1"
Response: 1.81
